Just for reference, patent US20090215805A1 is where these values come from.

// reported melting point for each item listed

The following compounds have reported results that may help.
{"columns": ["mol", "observed-property", "result"],
 "data": [
  ["Cc1[nH]c(CN(C)C)c(C)c1-c1ccnc(Nc2cccc([N+](=O)[O-])c2)n1", "melting point", "88.3 to 92.6 °C"],
  ["CCOC(=O)c1[nH]c(C)c(-c2ccnc(Nc3ccc(C(F)(F)F)cc3)n2)c1-c1ccccc1", "melting point", "227 to 230 °C"],
  ["CCOC(=O)c1[nH]c(C)c(-c2ccnc(Nc3cccc(O)c3)n2)c1-c1ccccc1", "melting point", "123.1 to 124.2 °C"]
]}

Field request: melting point | item: Cc1[nH]cc(-c2ccccc2)c1-c1ccnc(Nc2cccc([N+](=O)[O-])c2)n1
201 to 203 °C

Field request: melting point | item: Cc1[nH]cc(-c2ccccc2)c1-c1ccnc(Nc2ccc(F)cc2)n1
196.6 to 198.1 °C

Field request: melting point | item: CCOC(=O)c1[nH]c(C)c(-c2ccnc(Nc3ccc(O)c([N+](=O)[O-])c3)n2)c1-c1ccccc1
202 to 205 °C

Field request: melting point | item: CCOC(=O)c1[nH]c(C)c(-c2ccnc(Nc3cccc(F)c3)n2)c1-c1ccccc1
200 to 203 °C

Field request: melting point | item: Cc1[nH]cc(-c2ccccc2)c1-c1ccnc(Nc2ccc(O)cc2)n1
194.1 to 195.6 °C

---

molecular target: CDK2/E (Homo sapiens); test: CDK2/E in vitro kinase assay; format: biochemical
observed-property: Ki (nM)

{"columns": ["compound", "unit-of-measure", "numeric-value"],
 "data": [
  ["COc1cc(Nc2nccc(-c3c(C)c(C#N)n(C)c3C)n2)cc(OC)c1OC [Compound 53]", "nM", 1120]
]}

1. CCNS(=O)(=O)c1cccc(Nc2nccc(-c3c(C)[nH]c(C#N)c3C)n2)c1 [Compound 32]
2. Cc1[nH]c(C#N)c(C)c1-c1ccnc(Nc2cccc(S(=O)(=O)NC(C)C)c2)n1 [Compound 34]
Just tell me: smaller Ki value, 1 or 2 ? Indicate which entry you chose by stating its label.
1

---

molecular target: DM Aur A (Dm AK-A) (Drosophila melanogaster, UniProt Q9VGF9)
Sequence (Q9VGF9 entry or part of it): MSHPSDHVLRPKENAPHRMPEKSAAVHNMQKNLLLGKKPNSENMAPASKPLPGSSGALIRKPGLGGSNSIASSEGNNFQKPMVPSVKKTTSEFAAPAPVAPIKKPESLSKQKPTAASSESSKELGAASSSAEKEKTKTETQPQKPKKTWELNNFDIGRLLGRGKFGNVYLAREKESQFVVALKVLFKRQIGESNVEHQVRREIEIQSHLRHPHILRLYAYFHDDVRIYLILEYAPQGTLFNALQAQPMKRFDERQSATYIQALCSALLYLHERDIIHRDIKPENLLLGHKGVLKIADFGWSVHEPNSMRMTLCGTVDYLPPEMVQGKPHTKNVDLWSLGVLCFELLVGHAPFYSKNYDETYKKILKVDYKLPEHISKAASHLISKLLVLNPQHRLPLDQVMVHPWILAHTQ
pKi: −log10 of the molar value.
observed-property: pKi

The following molecules have reported results that may help.
{"columns": ["mol", "numeric-value"],
 "data": [
  ["Cc1[nH]cc(-c2ccccc2)c1-c1ccnc(Nc2ccc(O)cc2)n1", 6.22],
  ["Cc1c[nH]c(C)c1-c1ccnc(Nc2ccc(N3CCOCC3)cc2)n1", 8.10],
  ["COc1ccc(C)c(Nc2nccc(-c3c(C)[nH]c(C#N)c3C)n2)c1", 5.60],
  ["CNc1ccc(Nc2nccc(-c3c(C)[nH]c(C#N)c3C)n2)cc1C(F)(F)F", 7.31],
  ["CCOC(=O)c1[nH]c(C)c(-c2ccnc(Nc3ccc(O)c([N+](=O)[O-])c3)n2)c1-c1ccccc1", 6.56],
  ["CCOC(=O)c1[nH]c(C)c(-c2ccnc(Nc3cccc(O)c3)n2)c1-c1ccccc1", 6.37]
]}

P. Cc1[nH]c(CN(C)C)c(C)c1-c1ccnc(Nc2cccc([N+](=O)[O-])c2)n1
Q. COCCOC(=O)c1[nH]c(C)c(-c2ccnc(Nc3ccc(N4CCOCC4)cc3)n2)c1-c1ccccc1
R. CCOC(=O)c1[nH]c(C)c(-c2ccnc(Nc3ccc(N4CCOCC4)cc3)n2)c1C
S. COc1ccc(Nc2nccc(-c3c(C)[nH]c(C#N)c3C)n2)cn1
T. Cc1cc(Nc2nccc(-c3c(C)[nH]c(C#N)c3C)n2)cnc1Cl
Put the entries in order of pKi, starting with the largest number. Answer by listing the labels in the order asked for.
P, R, S, Q, T

a. CC(=O)N1CCN(c2ccc(Nc3nccc(-c4c(C)c(C#N)n(C)c4C)n3)cn2)CC1
b. CCN(CC)CCNS(=O)(=O)c1ccc(Nc2nccc(-c3c(C)[nH]c(C#N)c3C)n2)cc1
I need your help: which of the pair a , b has higher pKi? Indicate which entry you chose by stating its label.
a

---

target: GSK3 (GSK-3β) (Oryctolagus cuniculus)
pKi: −log10 of the molar value.
observed-property: pKi

a. CCNS(=O)(=O)c1cccc(Nc2nccc(-c3c(C)[nH]c(C#N)c3C)n2)c1
b. COc1ccc(C)c(Nc2nccc(-c3c(C)[nH]c(C#N)c3C)n2)c1
I need your help: which of the pair a , b has higher pKi? Indicate which entry you chose by stating its label.
a

---

target: CDK2/E (Homo sapiens); test: CDK2/E in vitro kinase assay
observed-property: Ki

{"columns": ["mol", "study-target", "Ki"],
 "data": [
  ["Cc1ccc([N+](=O)[O-])cc1Nc1nccc(-c2c(C)[nH]c(C#N)c2C)n1", "CDK2/E (Homo sapiens)", "> 10 µM"],
  ["COc1cc(Nc2nccc(-c3c(C)cn(C)c3C)n2)cc(OC)c1OC", "CDK2/E (Homo sapiens)", "> 10 µM"]
]}

Here is the next item to consider.
Field request: Ki | item: CCOC(=O)c1[nH]c(C)c(-c2ccnc(Nc3ccc(N4CCOCC4)c(OC)c3)n2)c1C
> 10 µM

---

molecular target: DM Aur A (Dm AK-A) (Drosophila melanogaster, UniProt Q9VGF9)
observed-property: Ki (nM)

{"columns": ["mol", "Ki, nM"],
 "data": [
  ["Cc1[nH]c(C#N)c(C)c1-c1ccnc(Nc2ccc(N3CCN(Cc4ccccc4)CC3)cc2)n1", 108]
]}

a. CC(=O)N1CCN(c2ccc(Nc3nccc(-c4c(C)[nH]c(C#N)c4C)n3)cn2)CC1
b. CCNS(=O)(=O)c1cccc(Nc2nccc(-c3c(C)[nH]c(C#N)c3C)n2)c1
Just tell me: smaller Ki value, a or b ? Indicate which entry you chose by stating its label.
a

---

target: DM Aur A (Dm AK-A) (Drosophila melanogaster)
pIC50: −log10 of the molar value.
observed-property: pIC50

{"columns": ["compound", "pIC50"],
 "data": [
  ["COc1ccc(Nc2nccc(-c3c(C)[nH]c(C#N)c3C)n2)cn1 [Compound 28]", 6.34],
  ["CNc1ccc(Nc2nccc(-c3c(C)[nH]c(C#N)c3C)n2)cc1C(F)(F)F [Compound 31]", 6.90]
]}

a. Cc1[nH]cc(-c2ccccc2)c1-c1ccnc(Nc2cccc([N+](=O)[O-])c2)n1 [Compound 13]
b. COc1ccc(C)c(Nc2nccc(-c3c(C)[nH]c(C#N)c3C)n2)c1 [Compound 29]
I need your help: which of the pair a , b has higher pIC50? Indicate which entry you chose by stating its label.
a

---

molecular target: GSK3 (GSK-3β) (Oryctolagus cuniculus, UniProt A0A5F9DUX8); assay: GSK-3 kinase assay; type: biochemical, rabbit; details: in vitro kinase assay
Sequence (A0A5F9DUX8 entry or part of it): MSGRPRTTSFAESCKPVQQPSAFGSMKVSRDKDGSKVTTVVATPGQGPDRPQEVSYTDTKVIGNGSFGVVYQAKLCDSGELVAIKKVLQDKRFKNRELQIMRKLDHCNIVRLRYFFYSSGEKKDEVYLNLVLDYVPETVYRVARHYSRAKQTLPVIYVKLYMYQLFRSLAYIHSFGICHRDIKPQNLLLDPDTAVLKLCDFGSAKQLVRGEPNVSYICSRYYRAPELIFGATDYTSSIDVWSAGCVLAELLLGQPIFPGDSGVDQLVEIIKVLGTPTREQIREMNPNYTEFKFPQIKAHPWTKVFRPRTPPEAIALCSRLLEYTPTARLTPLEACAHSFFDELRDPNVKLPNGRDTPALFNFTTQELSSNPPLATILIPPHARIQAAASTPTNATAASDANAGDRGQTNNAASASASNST
observed-property: Ki (nM)

The following compounds have reported results that may help.
{"columns": ["mol", "numeric-value"],
 "data": [
  ["CCN(CC)CCNS(=O)(=O)c1ccc(Nc2nccc(-c3c(C)[nH]c(C#N)c3C)n2)cc1", 14],
  ["Cc1[nH]c(C#N)c(C)c1-c1ccnc(Nc2ccc(N(C)C)c([N+](=O)[O-])c2)n1", 5],
  ["COc1ccc(Nc2nccc(-c3c(C)[nH]c(C#N)c3C)n2)cn1", 5],
  ["CNc1ccc(Nc2nccc(-c3c(C)[nH]c(C#N)c3C)n2)cc1C(F)(F)F", 53],
  ["Cc1[nH]c([N+](=O)[O-])c(C)c1-c1ccnc(Nc2ccc(N(C)C)c([N+](=O)[O-])c2)n1", 4]
]}

a. Cc1[nH]c(C#N)c(C)c1-c1ccnc(Nc2ccc(N3CCOCC3)cc2)n1
b. Cc1cc(Nc2nccc(-c3c(C)[nH]c(C#N)c3C)n2)cnc1Cl
c. Cc1[nH]cc(-c2ccccc2)c1-c1ccnc(Nc2ccc(F)cc2)n1
Would you mind ranking these compounds by ascending Ki? Answer by listing the labels in the order asked for.
b, c, a

---

Recorded IC50 values (DM Aur A (Dm AK-A) (Drosophila melanogaster)) are given below.
observed-property: IC50 (nM)

A. Cc1[nH]c(CN(C)C)c(C)c1-c1ccnc(Nc2cccc([N+](=O)[O-])c2)n1 [Compound 17]
B. CCN(CC)CCNS(=O)(=O)c1ccc(Nc2nccc(-c3c(C)[nH]c(C#N)c3C)n2)cc1 [Compound 36]
C. CC(=O)N1CCN(c2ccc(Nc3nccc(-c4c(C)c(C#N)n(C)c4C)n3)cn2)CC1 [Compound 39]
# rank by IC50, ascending (min first) Answer by listing the labels in the order asked for.
A, C, B
